Test System: Neuropeptide Y receptor type 4 (Homo sapiens, UniProt P50391)
Sequence (P50391 whole entry): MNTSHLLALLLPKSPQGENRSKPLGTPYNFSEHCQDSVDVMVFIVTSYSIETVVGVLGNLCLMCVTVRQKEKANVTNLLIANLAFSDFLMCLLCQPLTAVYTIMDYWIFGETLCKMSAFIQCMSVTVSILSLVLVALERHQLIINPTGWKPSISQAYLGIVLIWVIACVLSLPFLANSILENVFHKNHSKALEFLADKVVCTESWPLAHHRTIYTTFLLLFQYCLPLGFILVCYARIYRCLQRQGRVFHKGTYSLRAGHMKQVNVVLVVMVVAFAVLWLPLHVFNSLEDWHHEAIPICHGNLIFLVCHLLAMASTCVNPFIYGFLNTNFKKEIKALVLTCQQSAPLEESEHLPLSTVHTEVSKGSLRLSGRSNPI
Run Description: Agonist activity at human Y4R expressed in HEK293T cells by miniGsi assay relative to control
Format: functional, cell-based
Experimental Parameters: filed as agonist
Starred links: 1 amine or outer side, 2 acyl side, 3 side chain; linkers in the order of their positions; H or OH if unused. Positions of bridges follow the written chain, without caps; N, C: chain ends. Non-standard residues stand in square brackets, D forms with d. Residues, ends and D or L forms follow the SMILES beside them. *: point of attachment. Arg(Nω-CO) = N/C(=N\C(=O)[*:3])NCCC[C@H](N[*:1])C(=O)[*:2]; Ethylenediamine = C(CN[*:2])N[*:1]; Propionyl = CCC(=O)*
Observed Property: Emax (%)
One number for each entry, in %.

Give Emax for each of the items listed below.
1. CCC(=O)N[C@H]1CCC(=O)NCCNC(=O)/N=C(\N)NCCC[C@@H](C(=O)N[C@@H](CC(C)C)C(=O)N[C@@H](CCCNC(=N)N)C(=O)N[C@@H](Cc2ccc(O)cc2)C(N)=O)NC(=O)[C@H](Cc2ccc(O)cc2)NC(=O)[C@H](CCCNC(=N)N)NC1=O (Propionyl-ERY[Arg(Nω-CO)]LRY-NH2; linker 1-4 via Ethylenediamine)
2. CC(C)C[C@H](NC(=O)[C@@H]1CCCN/C(N)=N/C(=O)NCCCCNC(=O)[C@H](N)CC(=O)N[C@@H](CCCNC(=N)N)C(=O)N[C@@H](Cc2ccc(O)cc2)C(=O)N1)C(=O)N[C@@H](CCCNC(=N)N)C(=O)N[C@@H](Cc1ccc(O)cc1)C(N)=O
3. CCC(=O)N[C@@H]1CC(=O)N[C@@H](CCCNC(=N)N)C(=O)N[C@@H](Cc2ccc(O)cc2)C(=O)N[C@H](C(=O)N[C@@H](CC(C)C)C(=O)N[C@@H](CCCNC(=N)N)C(=O)N[C@@H](Cc2ccc(O)cc2)C(N)=O)CCCN/C(N)=N/C(=O)NCCCCNC1=O
4. CC(C)C[C@H](NC(=O)[C@@H]1CCCN/C(N)=N/C(=O)NCCCCNC(=O)[C@@H](N)CC(=O)N[C@@H](CCCNC(=N)N)C(=O)N[C@@H](Cc2ccc(O)cc2)C(=O)N1)C(=O)N[C@@H](CCCNC(=N)N)C(=O)N[C@@H](Cc1ccc(O)cc1)C(N)=O
5. CCC(=O)N[C@H]1CC(=O)NCCCCNC(=O)/N=C(\N)NCCC[C@@H](C(=O)N[C@@H](CC(C)C)C(=O)N[C@@H](CCCNC(=N)N)C(=O)N[C@@H](Cc2ccc(O)cc2)C(N)=O)NC(=O)[C@H](Cc2ccc(O)cc2)NC(=O)[C@H](CCCNC(=N)N)NC1=O

// result
1. 70
2. 56
3. 51
4. 59
5. 46

Give Emax for each of the items listed below.
1. CC(C)C[C@H](NC(=O)[C@@H]1CCCN/C(N)=N/C(=O)NCCCCNC(=O)C[C@H](N)C(=O)N[C@@H](CCCNC(=N)N)C(=O)N[C@@H](Cc2ccc(O)cc2)C(=O)N1)C(=O)N[C@@H](CCCNC(=N)N)C(=O)N[C@@H](Cc1ccc(O)cc1)C(N)=O
2. CCC(=O)N[C@H]1CC(=O)N[C@@H](CCCNC(=N)N)C(=O)N[C@@H](Cc2ccc(O)cc2)C(=O)N[C@H](C(=O)N[C@@H](CC(C)C)C(=O)N[C@@H](CCCNC(=N)N)C(=O)N[C@@H](Cc2ccc(O)cc2)C(N)=O)CCCN/C(N)=N/C(=O)NCCCCNC1=O

// result
[55, 58]

Case CC(C)C[C@H](NC(=O)[C@@H]1CCCN/C(N)=N/C(=O)NCCNC(=O)CC[C@H](N)C(=O)N[C@@H](CCCNC(=N)N)C(=O)N[C@@H](Cc2ccc(O)cc2)C(=O)N1)C(=O)N[C@@H](CCCNC(=N)N)C(=O)N[C@@H](Cc1ccc(O)cc1)C(N)=O (H-ERY[Arg(Nω-CO)]LRY-NH2; linker 1-4 via Ethylenediamine) , Neuropeptide Y receptor type 4 (Homo sapiens, UniProt P50391), Emax recorded as 67

----------
Test System: Neuropeptide Y receptor type 4 (Homo sapiens, UniProt P50391)
Run Description: Agonist activity at human Y4R expressed in HEK293T cells by miniGsi assay relative to control
Assay type: functional, cell-based
Experimental Parameters: filed as agonist
Observed Property: Emax (%)
Answers are plain numbers, in %.

INSERT INTO assay_data (smiles_input, test_system, observed_property, numeric_value) VALUES
  ('CCC(=O)N[C@@H]1CC(=O)NCCCCNC(=O)/N=C(\N)NCCC[C@@H](C(=O)N[C@@H](CC(C)C)C(=O)N[C@@H](CCCNC(=N)N)C(=O)N[C@@H](Cc2ccc(O)cc2)C(N)=O)NC(=O)[C@H](Cc2ccc(O)cc2)NC(=O)[C@H](CCCNC(=N)N)NC1=O', 'Neuropeptide Y receptor type 4 (Homo sapiens, UniProt P50391)', 'Emax', 64);

Turning now to a further record.
# molecule CC(C)C[C@H](NC(=O)[C@@H]1CCCN/C(N)=N/C(=O)NCCCCNC(=O)C[C@@H](N)C(=O)N[C@@H](CCCNC(=N)N)C(=O)N[C@@H](Cc2ccc(O)cc2)C(=O)N1)C(=O)N[C@@H](CCCNC(=N)N)C(=O)N[C@@H](Cc1ccc(O)cc1)C(N)=O ; its Emax = 68

----------
Test System: Neuropeptide Y receptor type 4 (Homo sapiens)
Run Description: Agonist activity at human Y4R expressed in HEK293T cells incubated for 60 mins by cAMP CAMYEN assay
Type: functional, cell-based
Experimental Parameters: read-out: EC50
Observed Property: EC50
Number first, unit second.

Guide cases for EC50, answers given:
INSERT INTO measurements (smiles_input, result) VALUES
  ('CCC(=O)N[C@H]1CC(=O)NCCCCNC(=O)/N=C(\N)NCCC[C@@H](C(=O)N[C@@H](CC(C)C)C(=O)N[C@@H](CCCNC(=N)N)C(=O)N[C@@H](Cc2ccc(O)cc2)C(N)=O)NC(=O)[C@H](Cc2ccc(O)cc2)NC(=O)[C@H](CCCNC(=N)N)NC1=O', '0.2 nM'),
  ('CCC(=O)NCCCC(=O)N[C@@H]1CC(=O)N[C@@H](CCCNC(=N)N)C(=O)N[C@@H](Cc2ccc(O)cc2)C(=O)N[C@H](C(=O)N[C@@H](CC(C)C)C(=O)N[C@@H](CCCNC(=N)N)C(=O)N[C@@H](Cc2ccc(O)cc2)C(N)=O)CCCN/C(N)=N/C(=O)NCCCCNC1=O.O=C(O)C(F)(F)F.O=C(O)C(F)(F)F.O=C(O)C(F)(F)F', '0.17 nM'),
  ('CCC(=O)N[C@H]1CC(=O)N[C@@H](CCCNC(=N)N)C(=O)N[C@@H](Cc2ccc(O)cc2)C(=O)N[C@H](C(=O)N[C@@H](CC(C)C)C(=O)N[C@@H](CCCNC(=N)N)C(=O)N[C@@H](Cc2ccc(O)cc2)C(N)=O)CCCN/C(N)=N/C(=O)NCCCCNC1=O', '0.13 nM');

Turning now to a further record.
# compound CCC(=O)N[C@@H]1CC(=O)N[C@@H](CCCNC(=N)N)C(=O)N[C@@H](Cc2ccc(O)cc2)C(=O)N[C@H](C(=O)N[C@@H](CC(C)C)C(=O)N[C@@H](CCCNC(=N)N)C(=O)N[C@@H](Cc2ccc(O)cc2)C(N)=O)CCCN/C(N)=N/C(=O)NCCCCNC1=O ; its EC50 = 0.063 nM

----------
Test System: Neuropeptide Y receptor type 4 (Homo sapiens)
Run Description: Agonist activity at human Y4R expressed in CHO cells co-expressing Gqi5-mtAEQ by calcium2+ aequorin assay
Type: functional, cell-based
Experimental Parameters: read-out: EC50
I'd be grateful if you could share measured EC50 for these entries.
Answers are plain numbers, in nM.

INSERT INTO assay_data (smiles_input, test_system, observed_property, numeric_value) VALUES
  ('CCC(=O)NCCCC(=O)N[C@@H]1CC(=O)N[C@@H](CCCNC(=N)N)C(=O)N[C@@H](Cc2ccc(O)cc2)C(=O)N[C@H](C(=O)N[C@@H](CC(C)C)C(=O)N[C@@H](CCCNC(=N)N)C(=O)N[C@@H](Cc2ccc(O)cc2)C(N)=O)CCCN/C(N)=N/C(=O)NCCCCNC1=O.O=C(O)C(F)(F)F.O=C(O)C(F)(F)F.O=C(O)C(F)(F)F', 'Neuropeptide Y receptor type 4 (Homo sapiens)', 'EC50', 5.4),
  ('CCC(=O)N[C@H]1CC(=O)NCCCCNC(=O)/N=C(\N)NCCC[C@@H](C(=O)N[C@@H](CC(C)C)C(=O)N[C@@H](CCCNC(=N)N)C(=O)N[C@@H](Cc2ccc(O)cc2)C(N)=O)NC(=O)[C@H](Cc2ccc(O)cc2)NC(=O)[C@H](CCCNC(=N)N)NC1=O', 'Neuropeptide Y receptor type 4 (Homo sapiens)', 'EC50', 23),
  ('CC(C)C[C@H](NC(=O)[C@@H]1CCCN/C(N)=N/C(=O)NCCCCNC(=O)[C@H](N)CC(=O)N[C@@H](CCCNC(=N)N)C(=O)N[C@@H](Cc2ccc(O)cc2)C(=O)N1)C(=O)N[C@@H](CCCNC(=N)N)C(=O)N[C@@H](Cc1ccc(O)cc1)C(N)=O', 'Neuropeptide Y receptor type 4 (Homo sapiens)', 'EC50', 8);

Turning now to a further record.
# compound CCC(=O)N[C@@H]1CC(=O)NCCCCNC(=O)/N=C(\N)NCCC[C@@H](C(=O)N[C@@H](CC(C)C)C(=O)N[C@@H](CCCNC(=N)N)C(=O)N[C@@H](Cc2ccc(O)cc2)C(N)=O)NC(=O)[C@H](Cc2ccc(O)cc2)NC(=O)[C@H](CCCNC(=N)N)NC1=O ; its EC50 = 22
